test system: U2OS; experiment: Multiplex assay against U2OS; assay type: toxicity, cell-based; conditions: human, 24 h, 10 µM, compound concentration 10 uM, replicate 2
observed property: Population Normal (%)
Give the value, in units of %, as a plain number.

Note to self: Population Normal (%) recorded for "C[C@@H]1CC(=O)Nc2cccc(-c3ccc4c(c3)c(-c3cnn(C)c3)nn4C)c2N1" was 98

Note to self: Population Normal (%) recorded for "COC(c1ccccc1)(c1ccccc1)[C@H](Oc1nc(C)cc(C)n1)C(=O)O" was 100

Note to self: Population Normal (%) recorded for "Cc1cc(O)c(-c2ccc([C@@H](C)CN(C)C)cc2)c2c1[nH]c(=O)c1sccc12" was 87

Origin of values: ChEMBL document CHEMBL5058577
